Would you mind telling me the reported MIC of each entry?
# System: Pseudomonas maltophilia E04004
# PROTOCOL_DETAILS: Antibacterial activity (MIC), Pseudomonas maltophilia E04004
# Assay type: cell-based
# CONDITION_CONTEXT: Stenotrophomonas maltophilia
Numbers only, in µg/mL.

Report MIC for CO/N=C(\C(=O)N[C@@H]1C(=O)N2C(C(=O)[O-])=C(C[N+]34CCC(C(N)=O)(CC3)CC4)CS[C@H]12)c1csc(N)n1 [Example 5] please.
12.5

Report MIC for CO/N=C(\C(=O)N[C@@H]1C(=O)N2C(C(=O)[O-])=C(C[N+]34CCC(C)(CC3)CC4)CS[C@H]12)c1nsc(N)n1 [Example 15] please.
1.56

Report MIC for CO/N=C(\C(=O)N[C@@H]1C(=O)N2C(C(=O)[O-])=C(C[N+]34CCC(O)(CC3)C4)CS[C@H]12)c1nsc(N)n1 [Example 2] please.
12.5

Report MIC for CO/N=C(\C(=O)N[C@@H]1C(=O)N2C(C(=O)[O-])=C(C[N+]34CCC(CO)(CC3)CC4)CS[C@H]12)c1nsc(N)n1 [Example 14] please.
3.13

Please go through the list and note MIC for each compound.
1. CO/N=C(\C(=O)N[C@@H]1C(=O)N2C(C(=O)[O-])=C(C[N+]34CCC(C(N)=O)(CC3)CC4)CS[C@H]12)c1nsc(N)n1 [Example 6]
2. CO/N=C(\C(=O)N[C@@H]1C(=O)N2C(C(=O)[O-])=C(C[N+]34CCC(O)(CC3)CC4)CS[C@H]12)c1nsc(N)n1 [Example 4]
3. CO/N=C(\C(=O)N[C@@H]1C(=O)N2C(C(=O)[O-])=C(C[N+]34CCC(O)(CC3)C4)CS[C@H]12)c1csc(N)n1 [Example 1]
4. CO/N=C(\C(=O)N[C@@H]1C(=O)N2C(C(=O)[O-])=C(C[N+]34CCC(O)(CC3)CC4)CS[C@H]12)c1csc(N)n1 [Example 3]

1. 3.13
2. 6.25
3. 25
4. 6.25
